Kindly supply the reported solubility change mitosis (log2) values for the records listed here.
- Tested on: HeLa Kyoto
- Protocol description: solubility change mitosis vs G1/S (difference of NP-40 vs SDS log2 ratios) (log2 ratio difference); higher = more soluble in mitosis
Answers are plain numbers.

For every item in the list below, what is its measured solubility change mitosis (log2)?
1. MAEISDLDRQIEQLRRCELIKESEVKALCAKAREILVEESNVQRVDSPVTVCGDIHGQFYDLKELFRVGGDVPETNYLFMGDFVDRGFYSVETFLLLLALKVRYPDRITLIRGNHESRQITQVYGFYDECLRKYGSVTVWRYCTEIFDYLSLSAIIDGKIFCVHGGLSPSIQTLDQIRTIDRKQEVPHDGPMCDLLWSDPEDTTGWGVSPRGAGYLFGSDVVAQFNAANDIDMICRAHQLVMEGYKWHFNETVLTVWSAPNYCYRCGNVAAILELDEHLQKDFIIFEAAPQETRGIPSKKPVADYFL [PPP4C]
2. MDLLFGRRKTPEELLRQNQRALNRAMRELDRERQKLETQEKKIIADIKKMAKQGQMDAVRIMAKDLVRTRRYVRKFVLMRANIQAVSLKIQTLKSNNSMAQAMKGVTKAMGTMNRQLKLPQIQKIMMEFERQAEIMDMKEEMMNDAIDDAMGDEEDEEESDAVVSQVLDELGLSLTDELSNLPSTGGSLSVAAGGKKAEAAASALADADADLEERLKNLRRD [CHMP2A]

[-0.0748, 0.0293]

List reported solubility change mitosis (log2) for each of these sequences:
1. MNGTRNWCTLVDVHPEDQAAGSVDILRLTLQGELTGDELEHIAQKAGRKTYAMVSSHSAGHSLASELVESHDGHEEIIKVYLKGRSGDKMIHEKNINQLKSEVQYIQEARNCLQKLREDISSKLDRNLGDSLHRQEIQVVLEKPNGFSQSPTALYSSPPEVDTCINEDVESLRKTVQDLLAKLQEAKRQHQSDCVAFEVTLSRYQREAEQSNVALQREEDRVEQKEAEVGELQRRLLGMETEHQALLAKVREGEVALEELRSNNADCQAEREKAATLEKEVAGLREKIHHLDDMLKSQQRKVRQMIEQLQNSKAVIQSKDATIQELKEKIAYLEAENLEMHDRMEHLIEKQISHGNFSTQARAKTENPGSIRISKPPSPKPMPVIRVVET [TUFT1]
2. MAANSSGQGFQNKNRVAILAELDKEKRKLLMQNQSSTNHPGASIALSRPSLNKDFRDHAEQQHIAAQQKAALQHAHAHSSGYFITQDSAFGNLILPVLPRLDPE [INIP]
3. MGQREMWRLMSRFNAFKRTNTILHHLRMSKHTDAAEEVLLEKKGCTGVITLNRPKFLNALTLNMIRQIYPQLKKWEQDPETFLIIIKGAGGKAFCAGGDIRVISEAEKAKQKIAPVFFREEYMLNNAVGSCQKPYVALIHGITMGGGVGLSVHGQFRVATEKCLFAMPETAIGLFPDVGGGYFLPRLQGKLGYFLALTGFRLKGRDVYRAGIATHFVDSEKLAMLEEDLLALKSPSKENIASVLENYHTESKIDRDKSFILEEHMDKINSCFSANTVEEIIENLQQDGSSFALEQLKVINKMSPTSLKITLRQLMEGSSKTLQEVLTMEYRLSQACMRGHDFHEGVRAVLIDKDQSPKWKPADLKEVTEEDLNNHFKSLGSSDLKF [HIBCH]
4. MASPSLERPEKGAGKSEFRNQKPKPENQDESELLTVPDGWKEPAFSKEDNPRGLLEESSFATLFPKYREAYLKECWPLVQKALNEHHVNATLDLIEGSMTVCTTKKTFDPYIIIRARDLIKLLARSVSFEQAVRILQDDVACDIIKIGSLVRNKERFVKRRQRLIGPKGSTLKALELLTNCYIMVQGNTVSAIGPFSGLKEVRKVVLDTMKNIHPIYNIKSLMIKRELAKDSELRSQSWERFLPQFKHKNVNKRKEPKKKTVKKEYTPFPPPQPESQIDKELASGEYFLKANQKKRQKMEAIKAKQAEAISKRQEERNKAFIPPKEKPIVKPKEASTETKIDVASIKEKVKKAKNKKLGALTAEEIALKMEADEKKKKKKK [KRR1]
5. MALAARLWRLLPFRRGAAPGSRLPAGTSGSRGHCGPCRFRGFEVMGNPGTFKRGLLLSALSYLGFETYQVISQAAVVHATAKVEEILEQADYLYESGETEKLYQLLTQYKESEDAELLWRLARASRDVAQLSRTSEEEKKLLVYEALEYAKRALEKNESSFASHKWYAICLSDVGDYEGIKAKIANAYIIKEHFEKAIELNPKDATSIHLMGIWCYTFAEMPWYQRRIAKMLFATPPSSTYEKALGYFHRAEQVDPNFYSKNLLLLGKTYLKLHNKKLAAFWLMKAKDYPAHTEEDKQIQTEAAQLLTSFSEKN [RMDN1]
6. MAEKFDHLEEHLEKFVENIRQLGIIVSDFQPSSQAGLNQKLNFIVTGLQDIDKCRQQLHDITVPLEVFEYIDQGRNPQLYTKECLERALAKNEQVKGKIDTMKKFKSLLIQELSKVFPEDMAKYRSIRGEDHPPS [MED10]
7. MPSKKKKYNARFPPARIKKIMQTDEEIGKVAAAVPVIISRALELFLESLLKKACQVTQSRNAKTMTTSHLKQCIELEQQFDFLKDLVASVPDMQGDGEDNHMDGDKGARRGRKPGSGGRKNGGMGTKSKDKKLSGTDSEQEDESEDTDTDGEEETSQPPPQASHPSAHFQSPPTPFLPFASTLPLPPAPPGPSAPDEEDEEDYDS [DRAP1]
8. MKPSGEDQAALAAGPWEECFQAAVQLALRAGQIIRKALTEEKRVSTKTSAADLVTETDHLVEDLIISELRERFPSHRFIAEEAAASGAKCVLTHSPTWIIDPIDGTCNFVHRFPTVAVSIGFAVRQELEFGVIYHCTEERLYTGRRGRGAFCNGQRLRVSGETDLSKALVLTEIGPKRDPATLKLFLSNMERLLHAKAHGVRVIGSSTLALCHLASGAADAYYQFGLHCWDLAAATVIIREAGGIVIDTSGGPLDLMACRVVAASTREMAMLIAQALQTINYGRDDEK [IMPA2]

0.112
0.407
-0.019
0.79
0.0519
0.446
0.215
-0.261

---

- System: HeLa Kyoto
- Protocol description: solubility in G1/S (NP-40 vs SDS abundance) (log2 ratio); higher = more soluble
- Details: cell cycle stage: G1/S
Consider the following substances; for each one, report its solubility in G1/S (log2).
Give bare numbers.

Worked examples, 6 substances total:
Substance	System	Measurement
MGNSALRAHVETAQKTGVFQLKDRGLTEFPADLQKLTSNLRTIDLSNNKIESLPPLLIGKFTLLKSLSLNNNKLTVLPDEICNLKKLETLSLNNNHLRELPSTFGQLSALKTLSLSGNQLGALPPQLCSLRHLDVMDLSKNQIRSIPDSVGELQVIELNLNQNQISQISVKISCCPRLKILRLEENCLELSMLPQSILSDSQICLLAVEGNLFEIKKLRELEGYDKYMERFTATKKKFA [LRRC57]	HeLa Kyoto	0.266
MAAPGPALCLFDVDGTLTAPRQKITKEMDDFLQKLRQKIKIGVVGGSDFEKVQEQLGNDVVEKYDYVFPENGLVAYKDGKLLCRQNIQSHLGEALIQDLINYCLSYIAKIKLPKKRGTFIEFRNGMLNVSPIGRSCSQEERIEFYELDKKENIRQKFVADLRKEFAGKGLTFSIGGQISFDVFPDGWDKRYCLRHVENDGYKTIYFFGDKTMPGGNDHEIFTDPRTMGYSVTAPEDTRRICELLFS [PMM2]	HeLa Kyoto	0.526
MELLCCEGTRHAPRAGPDPRLLGDQRVLQSLLRLEERYVPRASYFQCVQREIKPHMRKMLAYWMLEVCEEQRCEEEVFPLAMNYLDRYLSCVPTRKAQLQLLGAVCMLLASKLRETTPLTIEKLCIYTDHAVSPRQLRDWEVLVLGKLKWDLAAVIAHDFLAFILHRLSLPRDRQALVKKHAQTFLALCATDYTFAMYPPSMIATGSIGAAVQGLGACSMSGDELTELLAGITGTEVDCLRACQEQIEAALRESLREASQTSSSPAPKAPRGSSSQGPSQTSTPTDVTAIHL [CCND3]	HeLa Kyoto	0.226
RALGAPA1	HeLa Kyoto	-0.0986
MSAHNRGTELDLSWISKIQVNHPAVLRRAEQIQARRTVKKEWQAAWLLKAVTFIDLTTLSGDDTSSNIQRLCYKAKYPIREDLLKALNMHDKGITTAAVCVYPARVCDAVKALKAAGCNIPVASVAAGFPAGQTHLKTRLEEIRLAVEDGATEIDVVINRSLVLTGQWEALYDEIRQFRKACGEAHLKTILATGELGTLTNVYKASMIAMMAGSDFIKTSTGKETVNATFPVAIVMLRAIRDFFWKTGNKIGFKPAGGIRSAKDSLAWLSLVKEELGDEWLKPELFRIGASTLLSDIERQIYHHVTGRYAAYHDLPMS [DERA]	HeLa Kyoto	-0.131
MASVLSYESLVHAVAGAVGSVTAMTVFFPLDTARLRLQVDEKRKSKTTHMVLLEIIKEEGLLAPYRGWFPVISSLCCSNFVYFYTFNSLKALWVKGQHSTTGKDLVVGFVAGVVNVLLTTPLWVVNTRLKLQGAKFRNEDIVPTNYKGIIDAFHQIIRDEGISALWNGTFPSLLLVFNPAIQFMFYEGLKRQLLKKRMKLSSLDVFIIGAVAKAIATTVTYPLQTVQSILRFGRHRLNPENRTLGSLRNILYLLHQRVRRFGIMGLYKGLEAKLLQTVLTAALMFLVYEKLTAATFTVMGLKRAHQH [SLC25A17]	HeLa Kyoto	-0.148

GET /value?item= MSDRKAVIKNADMSEDMQQDAVDCATQAMEKYNIEKDIAAYIKKEFDKKYNPTWHCIVGRNFGSYVTHETKHFIYFYLGQVAILLFKSG [DYNLL2] &field=solubility in G1/S (log2) returns -0.415
